target: EGFR WT (Homo sapiens); assay: Activity for inhibiting EGFR (Table A), EGFR WT; type: cell-based; details: read-out: EGFR WT, potency code (IC50)
Sequence (P00533 25-1210 N540K): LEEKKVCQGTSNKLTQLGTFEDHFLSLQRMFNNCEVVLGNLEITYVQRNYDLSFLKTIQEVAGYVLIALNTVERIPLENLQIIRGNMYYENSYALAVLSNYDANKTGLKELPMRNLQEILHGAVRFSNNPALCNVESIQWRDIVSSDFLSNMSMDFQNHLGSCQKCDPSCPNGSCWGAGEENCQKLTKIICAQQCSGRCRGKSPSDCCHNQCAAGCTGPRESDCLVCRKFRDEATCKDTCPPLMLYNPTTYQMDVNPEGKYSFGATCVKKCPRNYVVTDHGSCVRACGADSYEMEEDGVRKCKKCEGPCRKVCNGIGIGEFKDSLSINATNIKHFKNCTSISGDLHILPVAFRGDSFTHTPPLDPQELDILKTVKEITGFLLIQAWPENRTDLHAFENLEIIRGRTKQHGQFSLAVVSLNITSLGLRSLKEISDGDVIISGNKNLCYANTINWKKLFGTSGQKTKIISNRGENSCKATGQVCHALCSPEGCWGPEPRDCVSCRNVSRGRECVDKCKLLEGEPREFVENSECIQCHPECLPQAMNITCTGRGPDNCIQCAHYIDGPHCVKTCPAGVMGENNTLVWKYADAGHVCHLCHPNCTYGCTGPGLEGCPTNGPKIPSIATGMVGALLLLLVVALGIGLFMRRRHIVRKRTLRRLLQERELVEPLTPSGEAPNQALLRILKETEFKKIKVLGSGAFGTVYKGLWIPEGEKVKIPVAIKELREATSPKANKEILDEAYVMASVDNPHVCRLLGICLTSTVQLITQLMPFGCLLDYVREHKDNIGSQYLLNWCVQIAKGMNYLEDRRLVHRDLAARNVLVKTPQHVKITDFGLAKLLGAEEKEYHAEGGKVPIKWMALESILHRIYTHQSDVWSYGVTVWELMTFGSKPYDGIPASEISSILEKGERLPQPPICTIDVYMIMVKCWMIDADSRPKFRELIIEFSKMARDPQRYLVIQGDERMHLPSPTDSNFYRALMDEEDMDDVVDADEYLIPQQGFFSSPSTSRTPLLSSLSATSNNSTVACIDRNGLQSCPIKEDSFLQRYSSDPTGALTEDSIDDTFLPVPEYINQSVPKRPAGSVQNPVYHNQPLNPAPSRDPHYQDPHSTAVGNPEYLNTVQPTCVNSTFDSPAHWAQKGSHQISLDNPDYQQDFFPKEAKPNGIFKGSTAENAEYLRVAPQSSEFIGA
pIC50: −log10 of the molar value.
Parameter: pIC50. Scope: all listed entries.

Reference set, count: 5
query: Which measured pIC50 belongs to C=CC(=O)Nc1cc2c(Nc3ccc(OCc4cccnn4)c(Cl)c3)ncnc2cc1OCCN1CC2CCC(C1)O2 , tested on EGFR WT (Homo sapiens)?
result: < 6.00

query: Same again, this time with C=CC(=O)Nc1cc2c(Nc3ccc(OCc4cccc(F)c4)c(Cl)c3)ncnc2cc1O[C@@H]1CCN(C)C1
result: 6.70 to 7.00

query: Same again, this time with C=CC(=O)Nc1cc2c(Nc3ccc(OCc4cccc(F)c4)c(Cl)c3)ncnc2cc1OCCCN1C[C@H]2C[C@@H]1CO2
result: 6.30 to 6.52

query: Same again, this time with C=CC(=O)Nc1cc2c(Nc3ccc(OCc4ccccn4)c(Cl)c3)ncnc2cc1N1CCC2(CCN(C)C2)C1 (stereo not drawn)
result: 6.30 to 6.52

query: Same again, this time with C=CC(=O)Nc1cc2c(Nc3ccc(OCc4ccccn4)c(Cl)c3)ncnc2cc1N(C)CCCN1CCOCC1
result: 6.00 to 6.30

---
query: Which measured pIC50 belongs to C=CC(=O)Nc1cc2c(Nc3ccc(OCc4ccccn4)c(Cl)c3)ncnc2cc1OCC1CCCN1C (stereo not drawn) , tested on EGFR WT (Homo sapiens)?
result: 6.30 to 6.52

query: Same again, this time with C=CC(=O)Nc1cc2c(Nc3ccc(OCc4ccccn4)c(Cl)c3)ncnc2cc1OCC1CCN1C (stereo not drawn)
result: 6.00 to 6.30

query: Same again, this time with C=CC(=O)Nc1cc2c(Nc3ccc(OCc4cnccn4)c(Cl)c3)ncnc2cc1OCCN1CC(OC)C1
result: < 6.00

query: Same again, this time with C=CC(=O)Nc1cc2c(Nc3ccc(OCc4ccccn4)c(Cl)c3)ncnc2cc1N(C)C1CCN(C)C1 (stereo not drawn)
result: < 6.00

The measured values listed here are drawn from patent US11034672B1.
